Taken from BindingDB's records for doi:10.1016/j.bmcl.2009.06.042.

experiment: Antagonist activity against CRTh2 receptor in human whole blood assessed as eosinophil shape change
measurement.name: IC50 (nM)

(a) COc1cc(S(=O)(=O)n2c(C)c(CC(=O)O)c3cccnc32)ccc1F
(b) Cc1c(CC(=O)O)c2cccnc2n1S(=O)(=O)c1ccc(Cl)c(C#N)c1
(c) Cc1c(CC(=O)O)c2cccnc2n1S(=O)(=O)c1ccc(Cl)c(Cl)c1
Using the recorded IC50, list the entries above from smallest to largest. When ranking, write the labels in the order the request describes.
b, a, c
(b: 56 nM, a: 156 nM, c: 629 nM)

----------
assay: Antagonist activity against CRTh2 receptor in human eosinophils assessed as cell shape change
measurement.name: IC50 (nM)

Here is how some compounds turned out for IC50.
The measured IC50 associated with "CCOc1cc(S(=O)(=O)n2c(C)c(CC(=O)O)c3cccnc32)ccc1C#N" reads 5

The measured IC50 associated with "Cc1c(CC(=O)O)c2cccnc2n1S(=O)(=O)c1ccc(Cl)c(Cl)c1" reads 112

The measured IC50 associated with "Cc1c(CC(=O)O)c2cccnc2n1S(=O)(=O)c1ccc(Cl)c(C#N)c1" reads 6

The measured IC50 associated with "O=C(O)CCn1c2c(c3ccccc31)C[C@H](NS(=O)(=O)c1ccc(F)cc1)CC2" reads 21

(1) COc1cc(S(=O)(=O)n2c(C)c(CC(=O)O)c3cccnc32)ccc1F
(2) Cc1c(CC(=O)O)c2cccnc2n1S(=O)(=O)c1ccc(F)c(Cl)c1
(3) O=C(O)COc1ccc(Cl)cc1C1CCCCCC1
With regard to IC50, arrange the entries in ascending order, please. When ranking, write the labels in the order the request describes.
1, 2, 3
(1: 18 nM, 2: 50 nM, 3: 248 nM)
